# credit: patent US5288709A

Measured MIC accompanies every entry in the list below.
- Tested on: Micrococcus luteus ATCC 4698
- method.summary: In-vitro antimicrobial activity primary screen (agar dilution MIC)
- Type: cell-based
- measurement.context: Micrococcus luteus, ATCC4698, 24 h, BHI agar, 20-24 h

Some entries whose results are on file:
{"molecule": "CC[C@H]1OC(=O)[C@H](C)[C@@H](O[C@H]2C[C@@](C)(OC)[C@H](NC(C)=O)[C@H](C)O2)[C@H](C)[C@@H](O[C@@H]2O[C@H](C)C[C@H](N(C)C)[C@H]2O)[C@](C)(O)C[C@@H](C)[C@@H]2O[C@@]1(C)C(=O)[C@H]2C", "value": "0.2 µg/mL"}
{"molecule": "CC[C@H]1OC(=O)[C@H](C)[C@@H](O[C@H]2C[C@@](C)(OC)[C@@H](O)[C@H](C)O2)[C@H](C)[C@@H](O[C@@H]2O[C@H](C)C[C@H](N(C)C)[C@H]2O)[C@](C)(O)C[C@@H](C)[C@@H]2O[C@@]1(C)C(=O)[C@H]2C", "value": "0.1 µg/mL"}
{"molecule": "CC[C@H]1OC(=O)[C@H](C)[C@@H](O[C@H]2C[C@@](C)(OC)[C@@H](NC(N)=O)[C@H](C)O2)[C@H](C)[C@@H](O[C@@H]2O[C@H](C)C[C@H](N(C)C)[C@H]2O)[C@](C)(O)C[C@@H](C)[C@@H]2O[C@@]1(C)C(=O)[C@H]2C", "value": "0.2 µg/mL"}
{"molecule": "CC[C@H]1OC(=O)[C@H](C)[C@@H](O[C@H]2C[C@@](C)(OC)[C@@H](O)[C@H](C)O2)[C@H](C)[C@@H](O[C@@H]2O[C@H](C)C[C@H](N(C)C)[C@H]2O)[C@](C)(OC)C[C@@H](C)C2=C(C)C(=O)[C@]1(C)O2", "value": "0.2 µg/mL"}
{"molecule": "CC[C@H]1OC(=O)[C@H](C)[C@@H](O[C@H]2C[C@@](C)(OC)[C@H](N)[C@H](C)O2)[C@H](C)[C@@H](O[C@@H]2O[C@H](C)C[C@H](N(C)C)[C@H]2O)[C@](C)(O)C[C@@H](C)[C@@H]2O[C@@]1(C)[C@@H](N)[C@H]2C", "value": "0.1 µg/mL"}

[in] Please give the documented MIC of CC[C@H]1OC(=O)[C@H](C)[C@@H](O[C@H]2C[C@@](C)(OC)[C@H](NCc3ccccc3)[C@H](C)O2)[C@H](C)[C@@H](O[C@@H]2O[C@H](C)C[C@H](N(C)C)[C@H]2O)[C@](C)(O)C[C@@H](C)[C@@H]2O[C@@]1(C)C(=O)[C@H]2C
[out] 0.39 µg/mL

[in] Please give the documented MIC of CC[C@H]1OC(=O)[C@H](C)[C@@H](O[C@H]2C[C@@](C)(OC)[C@@H](O)[C@H](C)O2)[C@H](C)[C@@H](O[C@@H]2O[C@H](C)C[C@H](N(C)C)[C@H]2O)[C@](C)(O)C[C@@H](C)[C@@H]2O[C@@]1(C)[C@@H](N)[C@H]2C
[out] 0.1 µg/mL

[in] Please give the documented MIC of CC[C@H]1OC(=O)[C@H](C)[C@@H](O[C@H]2C[C@@](C)(OC)[C@@H](O)[C@H](C)O2)[C@H](C)[C@@H](O[C@@H]2O[C@H](C)C[C@H](N(C)C)[C@H]2O)[C@](C)(O)C[C@@H](C)[C@@H]2O[C@@]1(C)[C@@H](O)[C@H]2C
[out] 0.1 µg/mL

[in] Please give the documented MIC of CC[C@H]1OC(=O)[C@H](C)[C@@H](O[C@H]2C[C@@](C)(OC)[C@H](N)[C@H](C)O2)[C@H](C)[C@@H](O[C@@H]2O[C@H](C)C[C@H](N(C)C)[C@H]2O)[C@](C)(O)C[C@@H](C)[C@@H]2O[C@@]1(C)C(=O)[C@H]2C
[out] 0.05 µg/mL

[in] Please give the documented MIC of CC[C@H]1OC(=O)[C@H](C)[C@@H](O[C@H]2C[C@@](C)(OC)[C@H](NC(=O)OCc3ccccc3)[C@H](C)O2)[C@H](C)[C@@H](O[C@@H]2O[C@H](C)C[C@H](N(C)C)[C@H]2O)[C@](C)(O)C[C@@H](C)[C@@H]2O[C@@]1(C)C(=O)[C@H]2C
[out] 0.2 µg/mL
